# Measured Target: CHK1 (Homo sapiens)
# Sequence (O14757 whole entry): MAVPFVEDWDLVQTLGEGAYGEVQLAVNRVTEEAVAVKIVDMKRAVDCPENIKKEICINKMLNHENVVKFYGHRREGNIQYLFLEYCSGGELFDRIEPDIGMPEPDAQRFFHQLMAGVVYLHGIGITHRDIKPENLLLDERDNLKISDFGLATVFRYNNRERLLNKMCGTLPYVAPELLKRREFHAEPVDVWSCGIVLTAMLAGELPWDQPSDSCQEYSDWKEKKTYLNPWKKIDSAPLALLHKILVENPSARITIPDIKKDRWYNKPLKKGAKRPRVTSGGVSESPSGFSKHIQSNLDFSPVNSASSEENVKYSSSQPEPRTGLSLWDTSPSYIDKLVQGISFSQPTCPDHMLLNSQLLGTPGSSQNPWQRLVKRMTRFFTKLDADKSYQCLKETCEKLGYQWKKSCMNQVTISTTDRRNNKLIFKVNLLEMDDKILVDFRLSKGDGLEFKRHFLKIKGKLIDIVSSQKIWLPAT
# Experiment Notes: CHK1 high-throughput screening
# Type: biochemical
# Setup Conditions: read-out: % inhibition @ 20 μM, Table 4, repeated entries per example
Attribute Measured: inhibition at 20 µM (%)

Recorded inhibition at 20 µM, per entry:
COc1cc(Nc2nc(N)c(-c3nc(-c4cc(O)cc(O)c4)cs3)s2)cc(OC)c1OC	60.8
CSc1cccc(Nc2nc(N)c(-c3nc(-c4cccc(NC(=O)c5ccccc5)c4)cs3)s2)c1	0.9
Nc1nc(Nc2cccc(C(=O)O)c2)sc1-c1nc(-c2cccc(NC(=O)c3ccccc3)c2)cs1	30.1
COc1cc(Nc2nc(N)c(-c3nc(-c4cc(O)ccc4Br)cs3)s2)cc(OC)c1OC	42.5
Nc1nc(Nc2ccc(S(N)(=O)=O)cc2)sc1-c1nc(-c2ccccc2)cs1	36.6

[P] Nc1nc(Nc2ccc(S(N)(=O)=O)cc2)sc1-c1nc(-c2ccc(-c3ccccc3)cc2)cs1
[Q] COc1cc(Nc2nc(N)c(-c3nc(-c4cccc(C(=O)NCCc5ccccc5)c4)cs3)s2)cc(OC)c1OC
Exercise: Please indicate which has the smaller reported inhibition at 20 µM: P , or Q . In your reply, give the label of the chosen option.
Key: Q
(Q: 2.5%, P: 3.8%)

* * *

# System: human umbilical vein endothelial cells (HUVEC)
# Experiment Notes: HUVEC proliferation assay
# Assay type: cell-based
# Setup Conditions: Homo sapiens, HUVEC, 50 nM; crude combinatorial urea library; read-out: Inhibition of HUVEC Proliferation % inhibition @ 50 nM
# Procedure: HUVEC Proliferation Assay This assay determines the ability of a test compound to inhibit the growth factor-stimulated proliferation of human umbilical vein endothelial cells (“HUVEC”). […] Cellular proliferation was quantified 72 hours later by MTT dye reduction, at which time cells were exposed for 4 hours MTT (Promega Corp.). Dye reduction was stopped by addition of a stop solution (Promega Corp.) and absorbance at 595 λ was determined on a 96-well spectrophotometer plate reader. […]
The following compounds are listed with their measured inhibition at 0.05 µM values.
Number only, in %; omit the unit.

COc1cccc(C(=O)Nc2cccc(-c3csc(-c4sc(NC(=O)NCCCN5CCCCCC5)nc4N)n3)c2)c1	117
COc1cccc(C(=O)Nc2cccc(-c3csc(-c4sc(NC(=O)NCCCN5CCN(C)CC5)nc4N)n3)c2)c1	67

Exercise: Consider the compound COc1cccc(C(=O)Nc2cccc(-c3csc(-c4sc(NC(=O)N[C@@H](CO)C(N)=O)nc4N)n3)c2)c1 and give its measured inhibition at 0.05 µM.
Key: 24

Exercise: Query (compound): COc1cccc(C(=O)Nc2cccc(-c3csc(-c4sc(NC(=O)NCC5CCC=CO5)nc4N)n3)c2)c1 (centres unmarked) ; field requested: inhibition at 0.05 µM
Key: 33

Exercise: Quick one: inhibition at 0.05 µM for COc1cccc(C(=O)Nc2cccc(-c3csc(-c4sc(NC(=O)NCCCN5CCCC5=O)nc4N)n3)c2)c1 ?
Key: 123

Exercise: Query: inhibition at 0.05 µM; subject: COc1cccc(C(=O)Nc2cccc(-c3csc(-c4sc(NC(=O)NCCCC(=O)O)nc4N)n3)c2)c1
Key: 24

Exercise: # query: inhibition at 0.05 µM of entry COc1cccc(C(=O)Nc2cccc(-c3csc(-c4sc(NC(=O)NCCC5CCCN5C)nc4N)n3)c2)c1 (centres unmarked)
Key: 0

Exercise: Consider the compound COc1cccc(C(=O)Nc2cccc(-c3csc(-c4sc(NC(=O)NCC(C)(C)CO)nc4N)n3)c2)c1 and give its measured inhibition at 0.05 µM.
Key: 88

* * *

# Measured Target: phosphorylated VEGF-R2Δ50 (FLVK-P) (Homo sapiens, UniProt P35968, DEL940-989/E990V)
# Construct: VEGF-R2Δ50 contains residues 806-939 and 990-1171; made in house; host or cells: baculovirus/insect cells
# Experiment Notes: VEGF-R2 coupled spectrophotometric (FLVK-P) assay
# Type: biochemical
# Setup Conditions: Table 1; at 50, concentration unit not printed (head nM)
Attribute Measured: FLVK-P % inhibition @ 50 (% @)

Nc1nc(NC(=O)c2cccs2)sc1-c1nc(-c2cccc(NC(=O)c3cccc(Cl)c3)c2)no1	31
CCC(=O)Nc1nc(N)c(-c2nc(-c3cccc(NC(=O)c4cccc(Cl)c4)c3)no2)s1	34
Nc1nc(Nc2cccnc2)sc1-c1nc(-c2cccc(NC(=O)c3cccc(Cl)c3)c2)no1	27
CC(=O)Nc1nc(N)c(-c2nc(-c3cccc(NC(=O)c4cccc(Cl)c4)c3)no2)s1	33

* * *

# Measured Target: unphosphorylated VEGF-R2Δ50 (FLVK) (Homo sapiens, UniProt P35968, DEL940-989/E990V)
# Construct: VEGF-R2Δ50 contains residues 806-939 and 990-1171; made in house; host or cells: baculovirus/insect cells
# Experiment Notes: VEGF-R2 coupled spectrophotometric assay, unphosphorylated enzyme (FLVK)
# Assay type: biochemical
# Setup Conditions: Table 3; some entries 'Slow binder'
# Experimental: VEGF-R2 Construct for Assay: This construct determines the ability of a test compound to inhibit tyrosine kinase activity. […] The production of ADP from ATP that accompanies phosphoryl transfer was coupled to oxidation of NADH using phosphoenolpyruvate (PEP) and a system having pyruvate kinase (PK) and lactic dehydrogenase (LDH). The oxidation of NADH was monitored by following the decrease of absorbance at 340 nm (e340=6.22 cm^−1 mM^−1) using a Beckman DU 650 spectrophotometer. […]
pKi: −log10 of the molar value. Structures can show the parent of a compound that is named as a salt.
Attribute Measured: pKi

[A] COc1cc(Nc2nc(N)c(-c3nc(-c4cc(NC(=O)c5cccc(Cl)c5)c(F)cc4Cl)no3)s2)cc(OC)c1OC
[B] COc1cccc(C(=O)Nc2cc(-c3noc(-c4sc(Nc5cc(OC)c(OC)c(OC)c5)nc4N)n3)c(Cl)cc2F)c1 [D(70), TFA salt]
[C] CNC(=O)Nc1nc(N)c(-c2nc(-c3cccc(NC(=O)c4cccc(OC)c4)c3)c(C)s2)s1
[D] Cc1ccc(NC(=O)OC(C)(C)C)cc1-c1noc(-c2sc(Nc3ccccc3)nc2N)n1
[E] COc1cc(Nc2nc(N)c(-c3nc(-c4cc(N)c(F)cc4Cl)no3)s2)cc(OC)c1OC
Exercise: # descending pKi order for the listed compounds Would you mind listing the labels in the order asked for?
Key: C, A, D, B, E

* * *

# Measured Target: FL-CHK1 (Homo sapiens)
# Construct: C-terminally His-tagged full-length human CHK1 (FL-CHK1); 6xHis (C); made in house; host or cells: baculovirus/insect cells
# Sequence (O14757 whole entry): as above
# Experiment Notes: CHK1 assay
# Assay type: biochemical
# Set-up: unit not given here
# Setup Conditions: Table A combinatorial examples; footnote b not given
Attribute Measured: CHK1^b

COc1cc(Nc2nc(N)c(-c3nc(-c4c(Cl)cc(C(F)(F)F)cc4Cl)cs3)s2)cc(OC)c1OC	26.2
COc1cc(Nc2nc(N)c(-c3nc(-c4ccc(O)c(O)c4)cs3)s2)cc(OC)c1OC [drawing 325]	47.7
COc1cc(Nc2nc(N)c(-c3nc(-c4ccccc4)cs3)s2)cc(OC)c1OC [drawing 372]	14.1
COc1cc(Nc2nc(N)c(-c3nc(-c4ccc(Cl)c(C)c4)cs3)s2)cc(OC)c1OC	11.7
COc1cc(Nc2nc(N)c(-c3nc(-c4ccc([N+](=O)[O-])cc4)cs3)s2)cc(OC)c1OC	15.2

[I] COc1cc(Nc2nc(N)c(-c3nc(-c4ccc5oc6ccccc6c5c4)cs3)s2)cc2c1OCCO2
[II] CCN(CC)c1ccc(-c2csc(-c3sc(Nc4cc(OC)c(OC)c(OC)c4)nc3N)n2)cc1
[III] CCc1cc2c(cc1-c1csc(-c3sc(Nc4cc(OC)c5c(c4)OCCO5)nc3N)n1)C(C)(C)CCC2(C)C
[IV] CCOC(=O)c1cc(-c2csc(-c3sc(Nc4cc(OC)c(OC)c(OC)c4)nc3N)n2)on1
[V] COc1cc(Nc2nc(N)c(-c3nc(-c4ccccc4OC(C)=O)cs3)s2)cc(OC)c1OC
Exercise: Hi! Can you put these in order of CHK1^b, lowest number first? // ordering of labels required in reply
Key: V, II, IV, III, I
(V: −7.4, II: 1.3, IV: 2.7, III: 10.4, I: 34.1)

[A] COc1cc(Nc2nc(N)c(-c3nc(-c4ccc(Cl)cc4Cl)cs3)s2)cc(OC)c1OC
[B] COc1cc(Nc2nc(N)c(-c3nc(-c4ccc(C)cc4C)cs3)s2)cc(OC)c1OC
[C] COc1cc(Nc2nc(N)c(-c3nc(-c4sc5ccc(Cl)cc5c4C)cs3)s2)cc2c1OCCO2 [drawing 361]
[D] COc1cc(Nc2nc(N)c(-c3nc(-c4cc(-c5ccccc5)no4)cs3)s2)cc(OC)c1OC
Exercise: Rank the 4 compounds: largest CHK1^b first, smallest last. Put the labels in the requested order and write them down.
Key: C, A, B, D
(C: 48.7, A: 31.3, B: 12, D: 2.7)
